These measurements were taken from ChEMBL document CHEMBL3886280.

Biological target: Neuronal acetylcholine receptor subunit alpha-7 (Rattus norvegicus)
Sequence (Q05941 whole entry): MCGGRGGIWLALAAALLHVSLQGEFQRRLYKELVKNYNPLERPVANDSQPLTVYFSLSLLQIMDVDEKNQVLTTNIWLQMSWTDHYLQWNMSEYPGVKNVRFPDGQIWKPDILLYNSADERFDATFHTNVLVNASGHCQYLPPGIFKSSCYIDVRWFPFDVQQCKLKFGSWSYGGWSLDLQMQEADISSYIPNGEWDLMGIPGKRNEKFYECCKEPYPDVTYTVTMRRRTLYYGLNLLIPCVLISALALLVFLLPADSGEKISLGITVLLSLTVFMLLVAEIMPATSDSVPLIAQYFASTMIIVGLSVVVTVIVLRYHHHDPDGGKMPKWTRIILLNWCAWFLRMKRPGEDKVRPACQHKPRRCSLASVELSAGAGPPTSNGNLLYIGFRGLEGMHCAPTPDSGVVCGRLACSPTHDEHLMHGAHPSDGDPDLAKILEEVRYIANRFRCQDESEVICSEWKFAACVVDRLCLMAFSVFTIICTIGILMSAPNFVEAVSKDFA
Assay: Inhibition Assay: Compounds ([…]) were also evaluated for inhibition of binding to a7 nAChR using [125I]iodoMLA as previously reported in Carroll et al. The binding assays were conducted and the Ki values calculated as described in Carroll, F. I. et al., "Synthesis, nicotinic acetylcholine receptor binding, and antinociceptive properties of 2-exo-2-(2',3'-disubstituted 5'-pyridinyl)-7- …
property name: Ki

Fc1ncc(C2CC3CCC2N3)cc1-c1cccc(Cl)c1 (configuration not stated)	> 2 µM

Next:
Requested read-out: Ki. Entry: Fc1ncc(C2CC3CCC2N3)cc1-c1ccccc1 (racemic) > 2 µM
